target: HCK (human) (UniProt P08631); assay: KINOMEscan competition binding; details: compound 10.0 µM
Sequence (P08631 whole entry, looked up): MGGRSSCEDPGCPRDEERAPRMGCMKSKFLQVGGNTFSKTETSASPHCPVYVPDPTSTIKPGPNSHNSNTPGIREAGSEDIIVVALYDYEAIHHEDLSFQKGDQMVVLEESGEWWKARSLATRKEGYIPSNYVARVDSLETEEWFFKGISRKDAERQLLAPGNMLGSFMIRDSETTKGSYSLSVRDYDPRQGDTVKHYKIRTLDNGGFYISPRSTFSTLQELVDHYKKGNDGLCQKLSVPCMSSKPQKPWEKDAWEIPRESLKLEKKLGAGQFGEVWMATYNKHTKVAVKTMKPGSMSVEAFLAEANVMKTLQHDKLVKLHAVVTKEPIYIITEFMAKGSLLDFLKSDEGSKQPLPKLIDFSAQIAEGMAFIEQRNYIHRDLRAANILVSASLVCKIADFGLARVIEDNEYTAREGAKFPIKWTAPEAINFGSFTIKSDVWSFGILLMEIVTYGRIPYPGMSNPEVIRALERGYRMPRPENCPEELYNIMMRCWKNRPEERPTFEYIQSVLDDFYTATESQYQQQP
For each of the molecules below, state its kinase still bound, per cent of control.
Give just the number in %; leave the unit off.

What kinase still bound, per cent of control value was documented for this molecule, C=CC(=O)Nc1ccc(CN(C(=O)Nc2c(Cl)c(OC)cc(OC)c2Cl)c2cc(Nc3ccc(N4CCN(C)CC4)cc3)ncn2)cc1 ? 11

Request: O=C1NC(=O)/C(=C/c2ccc3nccc(-c4ccncc4)c3c2)S1 75

Request: CN(C)C/C=C/C(=O)Nc1ccc(C(=O)Nc2cccc(Nc3nccc(-c4cccnc4)n3)c2)cc1 100

Request: CCN(CC)CCCCNc1ncc2c(n1)N(C)C(=O)N(c1c(Cl)c(OC)cc(OC)c1Cl)C2 100

Request: C=CC(=O)Nc1cc(-n2c(=O)ccc3cnc4ccc(-c5cn[nH]c5)cc4c32)ccc1C 100

Request: CS(=O)(=O)N1CCN(Cc2cc3nc(-c4cccc5[nH]ncc45)nc(N4CCOCC4)c3s2)CC1 100

Request: O=C(Nc1cccc(Nc2ncc(Br)c(NCCc3cnc[nH]3)n2)c1)N1CCCC1 42

Request: Cc1n[nH]c2ccc(-c3cncc(OC[C@@H](N)Cc4c[nH]c5ccccc45)c3)cc12 100

Request: COc1cc2ncnc(-n3nc(-c4ccccn4)nc3N)c2cc1OC 12

Request: COc1ccc(N(C(=O)Oc2c(C)cccc2C)c2ccnc(Nc3ccc(N4CCN(C)CC4)cc3)n2)c(OC)c1 0.15

Request: CNC(=O)c1ccc(Nc2cc(Nc3ccccc3S(=O)(=O)C(C)C)c3cc[nH]c3n2)nc1 11
